The reported numbers originate from paper PMC9228535.

- protocol-details: Stability of ethyl carbamate by HPLC (decomposition rate, half-life)
- Assay type: physicochemical
- study-conditions: buffer, pH 7; read-out: half-life τ0,5 (converted)
outcome-measure: half-life (days)
Answers are plain numbers, in days.

Form field half-life, entry CCNC(=O)Oc1c(C(=O)Nc2cc(Cl)c(Cl)cc2Cl)ccc2ccccc12 : 23.2

###

- protocol-details: Lipophilicity determination by RP-HPLC (log k, log D)
- Type: physicochemical
- study-conditions: RP-HPLC, MeOH 72%/acetate buffered saline pH 6.5
outcome-measure: log D6.5
One number for each entry.

structure-as-smiles: CCCCCNC(=O)Oc1c(C(=O)Nc2cc(Cl)c(Cl)cc2Cl)ccc2ccccc12
log D6.5: 1.3072

Go through the list and state log D6.5 for each entry.
1. O=C(NCCCCc1ccccc1)Oc1c(C(=O)Nc2cc(Cl)c(Cl)cc2Cl)ccc2ccccc12
2. O=C(Nc1cc(Cl)c(Cl)cc1Cl)c1ccc2ccccc2c1O

Result:
1: 1.5193; 2: 0.5782

Hi team, please reply with log D6.5 for each item in this list.
1. O=C(NCCc1ccccc1)Oc1c(C(=O)Nc2cc(Cl)c(Cl)cc2Cl)ccc2ccccc12
2. CCCCCCCNC(=O)Oc1c(C(=O)Nc2cc(Cl)c(Cl)cc2Cl)ccc2ccccc12
3. CCCCCCCCNC(=O)Oc1c(C(=O)Nc2cc(Cl)c(Cl)cc2Cl)ccc2ccccc12
4. CCCCCCNC(=O)Oc1c(C(=O)Nc2cc(Cl)c(Cl)cc2Cl)ccc2ccccc12
5. CCNC(=O)Oc1c(C(=O)Nc2cc(Cl)c(Cl)cc2Cl)ccc2ccccc12
6. O=C(NC1CCCCCC1)Oc1c(C(=O)Nc2cc(Cl)c(Cl)cc2Cl)ccc2ccccc12
7. CC(C)NC(=O)Oc1c(C(=O)Nc2cc(Cl)c(Cl)cc2Cl)ccc2ccccc12
8. O=C(NC1CCCCC1)Oc1c(C(=O)Nc2cc(Cl)c(Cl)cc2Cl)ccc2ccccc12

Result:
1: 1.2473; 2: 1.6765; 3: 1.8687; 4: 1.4899; 5: 0.8294; 6: 1.4492; 7: 0.9579; 8: 1.2952

Hello, I would appreciate it if you could give log D6.5 for each entry below.
1. CCCNC(=O)Oc1c(C(=O)Nc2cc(Cl)c(Cl)cc2Cl)ccc2ccccc12
2. CCCCNC(=O)Oc1c(C(=O)Nc2cc(Cl)c(Cl)cc2Cl)ccc2ccccc12
3. O=C(NC1CCCC1)Oc1c(C(=O)Nc2cc(Cl)c(Cl)cc2Cl)ccc2ccccc12

Result:
[0.9734, 0.9980, 1.1521]

###

I'd appreciate it if you could supply log k values for the items below.
- protocol-details: Lipophilicity determination by RP-HPLC (log k, log D)
- Assay type: physicochemical
- study-conditions: RP-HPLC, MeOH 72%/water 28%
Give bare numbers.

compound: O=C(NCCc1ccccc1)Oc1c(C(=O)Nc2cc(Cl)c(Cl)cc2Cl)ccc2ccccc12 [Compound 13]
outcome-measure: log k
obs-value: 1.2450

State recorded log k for all listed compounds.
1. O=C(NC1CCCCCC1)Oc1c(C(=O)Nc2cc(Cl)c(Cl)cc2Cl)ccc2ccccc12 [Compound 12]
2. CCNC(=O)Oc1c(C(=O)Nc2cc(Cl)c(Cl)cc2Cl)ccc2ccccc12 [Compound 2]
3. O=C(Nc1cc(Cl)c(Cl)cc1Cl)c1ccc2ccccc2c1O [Compound 1]
4. O=C(NCCCCc1ccccc1)Oc1c(C(=O)Nc2cc(Cl)c(Cl)cc2Cl)ccc2ccccc12 [Compound 14]

Result:
1. 1.4469
2. 0.8249
3. 0.6600
4. 1.5167

###

- Tested on: Staphylococcus aureus ATCC 29213
- protocol-details: MBC, agar aliquot subculture method
- Type: cell-based
- study-conditions: ATCC29213, SA = S. aureus ATCC 29213, read-out: MBC
Give measured MBC for each item. Keep answers brief.
One number for each entry, in µM.

compound: CCCCCNC(=O)Oc1c(C(=O)Nc2cc(Cl)c(Cl)cc2Cl)ccc2ccccc12 [Compound 5]
tested-on: Staphylococcus aureus ATCC 29213
units-of-measure: µM
MBC: 0.067
//
compound: CCCCCCNC(=O)Oc1c(C(=O)Nc2cc(Cl)c(Cl)cc2Cl)ccc2ccccc12 [Compound 6]
tested-on: Staphylococcus aureus ATCC 29213
units-of-measure: µM
MBC: 0.128
//
compound: CCCCNC(=O)Oc1c(C(=O)Nc2cc(Cl)c(Cl)cc2Cl)ccc2ccccc12 [Compound 4]
tested-on: Staphylococcus aureus ATCC 29213
units-of-measure: µM
MBC: 0.034
//
compound: O=C(NCCCCc1ccccc1)Oc1c(C(=O)Nc2cc(Cl)c(Cl)cc2Cl)ccc2ccccc12 [Compound 14]
tested-on: Staphylococcus aureus ATCC 29213
units-of-measure: µM
MBC: 0.116

Now take the following compound into account.
CCCNC(=O)Oc1c(C(=O)Nc2cc(Cl)c(Cl)cc2Cl)ccc2ccccc12 [Compound 3] tested on Staphylococcus aureus ATCC 29213 gave MBC: 0.035

###

Please go through the items and note down their log D7.4.
- protocol-details: Lipophilicity determination by RP-HPLC (log k, log D)
- Type: physicochemical
- study-conditions: RP-HPLC, MeOH 72%/acetate buffered saline pH 7.4
Answers are plain numbers.

Reference set, count: 5
structure-as-smiles: O=C(NC1CCCCC1)Oc1c(C(=O)Nc2cc(Cl)c(Cl)cc2Cl)ccc2ccccc12
log D7.4: 1.2955

structure-as-smiles: CCCCCCCNC(=O)Oc1c(C(=O)Nc2cc(Cl)c(Cl)cc2Cl)ccc2ccccc12
log D7.4: 1.6863

structure-as-smiles: O=C(Nc1cc(Cl)c(Cl)cc1Cl)c1ccc2ccccc2c1O
log D7.4: 0.5384

structure-as-smiles: O=C(NCCCCc1ccccc1)Oc1c(C(=O)Nc2cc(Cl)c(Cl)cc2Cl)ccc2ccccc12
log D7.4: 1.5191

structure-as-smiles: CCCNC(=O)Oc1c(C(=O)Nc2cc(Cl)c(Cl)cc2Cl)ccc2ccccc12
log D7.4: 0.9793

Please give log D7.4 for each item listed below.
1. CCCCCCNC(=O)Oc1c(C(=O)Nc2cc(Cl)c(Cl)cc2Cl)ccc2ccccc12
2. O=C(NC1CCCC1)Oc1c(C(=O)Nc2cc(Cl)c(Cl)cc2Cl)ccc2ccccc12

Result:
1. 1.4990
2. 1.1515

Short answer for CC(C)NC(=O)Oc1c(C(=O)Nc2cc(Cl)c(Cl)cc2Cl)ccc2ccccc12 : log D7.4 was 1.0468
